From: paper PMC3840065

Target: TxtE (Streptomyces scabiei, UniProt C9ZDC6)
Construct: full length, 406 residues, pET-28a, N-terminal His-tag with thrombin site (tag kept), E. coli Rosetta(DE3) pLysS, monomer in solution
Sequence (C9ZDC6 entry or part of it): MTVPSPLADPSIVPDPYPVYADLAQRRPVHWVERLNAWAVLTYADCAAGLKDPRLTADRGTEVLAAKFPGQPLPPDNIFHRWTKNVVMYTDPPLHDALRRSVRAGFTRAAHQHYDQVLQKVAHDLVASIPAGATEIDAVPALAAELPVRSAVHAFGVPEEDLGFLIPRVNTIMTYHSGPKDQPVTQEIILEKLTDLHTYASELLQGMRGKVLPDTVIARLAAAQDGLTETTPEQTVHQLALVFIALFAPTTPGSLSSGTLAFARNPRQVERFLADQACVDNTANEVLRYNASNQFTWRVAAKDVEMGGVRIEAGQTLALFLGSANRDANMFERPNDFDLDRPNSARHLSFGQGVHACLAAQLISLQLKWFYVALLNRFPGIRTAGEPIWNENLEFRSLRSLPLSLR
Test: UV-vis difference titration (type I shift, […] nm)
RECORDED_ENDPOINT: Kd (µM)
Give the number; µM is assumed, so skip it.

What value of Kd has been recorded for this entry: N[C@@H](Cc1c[nH]c2ccccc12)C(=O)O [L-tryptophan] 43.6

* * *

Target: TxtE (Streptomyces scabiei, UniProt C9ZDC6, Y89F)
Construct: full length, 406 residues, pET-28a, N-terminal His-tag with thrombin site (tag kept), E. coli Rosetta(DE3) pLysS, monomer in solution
Sequence (C9ZDC6 whole entry Y89F): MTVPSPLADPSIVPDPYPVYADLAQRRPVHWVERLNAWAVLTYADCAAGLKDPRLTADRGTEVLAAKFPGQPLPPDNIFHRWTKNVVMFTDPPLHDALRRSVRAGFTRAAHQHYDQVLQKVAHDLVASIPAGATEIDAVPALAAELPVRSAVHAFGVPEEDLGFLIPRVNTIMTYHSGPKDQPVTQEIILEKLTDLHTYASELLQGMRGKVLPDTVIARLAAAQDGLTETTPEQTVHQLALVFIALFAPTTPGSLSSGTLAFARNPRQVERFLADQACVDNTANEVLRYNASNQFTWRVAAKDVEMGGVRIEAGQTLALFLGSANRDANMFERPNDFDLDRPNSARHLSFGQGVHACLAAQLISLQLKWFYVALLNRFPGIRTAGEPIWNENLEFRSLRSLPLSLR
Test: UV-vis difference titration (type I shift, […] nm)
RECORDED_ENDPOINT: Kd (µM)
Give the number; µM is assumed, so skip it.

Give TxtE (Streptomyces scabiei, UniProt C9ZDC6, Y89F) Kd for N[C@@H](Cc1c[nH]c2ccccc12)C(=O)O [L-tryptophan] 121
